# assay_system: T1, human calcitonin receptor (human, UniProt P30988 25-474)
# T1 construct: whole, on cells; Assay used cell membranes of the transfected BHK cells; also called hCTR; hCT
# T1 sequence (looked up): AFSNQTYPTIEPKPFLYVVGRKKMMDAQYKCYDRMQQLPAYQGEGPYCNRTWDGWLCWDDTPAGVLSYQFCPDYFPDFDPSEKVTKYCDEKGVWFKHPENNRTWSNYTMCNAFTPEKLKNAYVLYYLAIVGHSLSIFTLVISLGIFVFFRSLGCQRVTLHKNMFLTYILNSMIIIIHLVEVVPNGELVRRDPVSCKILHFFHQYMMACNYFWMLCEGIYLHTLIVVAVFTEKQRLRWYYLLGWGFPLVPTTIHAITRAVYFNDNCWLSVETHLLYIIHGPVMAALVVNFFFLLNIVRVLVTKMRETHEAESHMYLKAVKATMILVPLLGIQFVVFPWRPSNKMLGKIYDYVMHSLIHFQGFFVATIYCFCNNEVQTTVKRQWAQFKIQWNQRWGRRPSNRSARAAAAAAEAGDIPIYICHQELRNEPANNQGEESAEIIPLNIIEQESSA
# protocol_details: ratio IC50 hCTR / IC50 hAmylin-R of the two SPA competition assays; reference: human amylin receptor
# Protocol: The resulting pellet was resuspended, homogenized and centrifuged (20.000 rpm, 15 min) in a buffer containing 20 mM Na-HEPES and 0.1 mM EDTA (pH 7.4, buffer 2). The resulting pellet was resuspended in buffer 2 and protein concentration was measured (BCA protein Assay, Pierce). The homogenate was kept cold during the whole procedure. […] Samples were analyzed on TopCounter™ (Packard). The IC₅₀ was calculated using (one site binding competition analysis) GraphPad Prism5 as a measure of receptor affinity. […]
reported_endpoint: Ratio hCT/hAmylin binding
Lab note: jot down the number only; don't add units.

binder: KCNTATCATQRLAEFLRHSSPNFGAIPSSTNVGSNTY (C20 diacid-gGlu-2xOEG on the alpha amino group of the N-terminal residue (Lys1); disulfide Cys2-Cys7; C-terminal amide, Synthetic analogue; also called compound 19)
value_reported: 36.7
//
binder: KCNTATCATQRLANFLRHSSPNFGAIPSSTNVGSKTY (C20 diacid-gGlu on the alpha amino group of the N-terminal residue (Lys1); disulfide Cys2-Cys7; C-terminal amide, Synthetic analogue; also called compound 34) [N^α1-[(4S)-4-carboxy-4-(19-carboxynonadecanoylamino)butanoyl]-[Arg17,Pro21,Pro27,Lys35]-h-amylin]
value_reported: 64.4

Could you now look at the following binder, please?
Return the recorded Ratio hCT/hAmylin binding value; entry: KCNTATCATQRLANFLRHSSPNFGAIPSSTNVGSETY (C20 diacid-gGlu on the alpha amino group of the N-terminal residue (Lys1); disulfide Cys2-Cys7; C-terminal amide, Synthetic analogue; also called compound 23) [N^α1-[(4S)-4-carboxy-4-(19-carboxynonadecanoylamino)butanoyl]-[Arg17,Pro21,Pro27,Glu35]-h-amylin]
25
